ASSAYED TARGET: T1, Sym-1706 (RSV G central conserved domain (CCD) peptide, type A 145-184) (Respiratory syncytial virus type A, N-terminal biotin)
T1 construct: Synthetic peptide, C-terminally truncated against Sym-1705
T1 peptide: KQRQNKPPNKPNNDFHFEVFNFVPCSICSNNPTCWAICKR
ASSAY METHOD TEXT: ELISA, biotinylated peptide on avidin plate
ASSAY READOUT: binding result

[
  {
    "BINDER": "CB047.2 (antibody, V domains shown, Tested as human IgG from the pCP9-kappa vector) VH: EVQLVESGGGLVQPGGSLRLSCAASGFNFSNYAMSWVRQAPGKGLEWVSDISSSGKTTNSADSVKGRFTISRDNSKNTLFLQMSSLRADDTAVYYCAKFRVPTYCVNGICYQGLPGFDIWGQGTMVTVSS VL: DIQMTQSPSSLSASVGDRVTITCQASQDISDYLNWYQQKPGKAPKLLIYDASNLETGVPSRFSASGSGTDFTFTISSLQPEDFATYYCQHYHNLPPLFGGGTKVEIK",
    "READOUT VALUE": "binds"
  },
  {
    "BINDER": "CB017.3L (antibody, V domains shown, Tested as human IgG expressed in 293-F cells from the pCP9-lambda vector) VH: QVQLVESGGGVVQPGGSLRLSCEASGFMFSVYAIHWVRQAPGKGLEWVAVIWHDGSNKYYADSVKGRFTISRDNSKDTMYLQMKTLRVDDTAVYYCARDPIVGSKTDGMDVWGQGTTVTVSS VL: SYELTQPPSVSVSPGQTARITCSGDALADQYAYWYQQKPGQAPVMVIFKDNERPSGIPERFSGSSSGTTVTLTVSGVQSEDEADYYCQSVDSSGTYWMFGGGTKLTVL",
    "READOUT VALUE": "binds"
  }
]
